molecular target: MAGI2_3, Q86UL8; experiment: holdup assay; design: key: below the threshold = too weak to quantify, mostly under pKd 3.1 to 4; conditions: plain residues with an end cap or a label only (N-terminal biotin on a linker: ado-ado)
Sequence (Q86UL8 600-682): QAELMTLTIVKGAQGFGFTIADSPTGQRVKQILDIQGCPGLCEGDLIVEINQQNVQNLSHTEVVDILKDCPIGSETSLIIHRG
ATTRIBUTE_MEASURED: pKd

* GIKKITSTAL [RPS6KA3, P51812] | 3.51
* EPQYQPGENL [SRC, P12931] | below the threshold
* KKMLQRRTLL [OR8G1, Q15617] | below the threshold
* EIPAQSPTCV [FZD10, Q9ULW2] | below the threshold
